Values from patent US20170342144A1

List of kd var/kd wt values.
# assay-system: T1, human TGFβ1 (human, UniProt P01137 279-390)
# T1 construct: also called TGFβ1 homodimer
# T1 sequence (P01137 279-390 limits assumed): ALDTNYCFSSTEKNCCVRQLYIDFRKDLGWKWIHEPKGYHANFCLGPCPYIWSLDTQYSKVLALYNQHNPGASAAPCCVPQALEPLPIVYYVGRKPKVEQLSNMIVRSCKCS
# test-summary: Biacore off-rate vs wt GC1008, 50 nM
# print the numeric value only

Some solved cases for reference:
binder	kd var/kd wt
S30V (antibody, V domains shown, GC1008 IgG4 variant) VH: QVQLVQSGAEVKKPGSSVKVSCKASGYTFVSNVISWVRQAPGQGLEWMGGVIPIVDIANYAQRFKGRVTITADESTSTTYMELSSLRSEDTAVYYCASTLGLVLDAMDYWGQGTLVTVSS VL: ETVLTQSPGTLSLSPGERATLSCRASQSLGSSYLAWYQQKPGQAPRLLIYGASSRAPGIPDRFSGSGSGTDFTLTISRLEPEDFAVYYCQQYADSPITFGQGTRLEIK	1.1
N59Y (antibody, V domains shown, GC1008 IgG4 variant) VH: QVQLVQSGAEVKKPGSSVKVSCKASGYTFSSNVISWVRQAPGQGLEWMGGVIPIVDIAYYAQRFKGRVTITADESTSTTYMELSSLRSEDTAVYYCASTLGLVLDAMDYWGQGTLVTVSS VL: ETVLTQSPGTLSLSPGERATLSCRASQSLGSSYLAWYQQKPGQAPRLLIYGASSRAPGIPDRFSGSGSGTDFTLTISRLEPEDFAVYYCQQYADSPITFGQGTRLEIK	1.3

Please report kd var/kd wt for the following binder: S30W (antibody, V domains shown, GC1008 IgG4 variant) VH: QVQLVQSGAEVKKPGSSVKVSCKASGYTFWSNVISWVRQAPGQGLEWMGGVIPIVDIANYAQRFKGRVTITADESTSTTYMELSSLRSEDTAVYYCASTLGLVLDAMDYWGQGTLVTVSS VL: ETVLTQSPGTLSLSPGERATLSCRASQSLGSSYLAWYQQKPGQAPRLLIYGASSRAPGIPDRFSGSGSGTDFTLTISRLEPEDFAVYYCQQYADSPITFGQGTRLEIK
0.7
